Molecular target: T1, human soluble DLL4 (R&D systems catalog #1056-D4-050) (human, UniProt Q9NR61 27-524)
T1 construct: Catalog number as printed; perhaps the same product as #1506-D4; also called antigen DLL4
T1 sequence (Q9NR61 27-524 limits assumed): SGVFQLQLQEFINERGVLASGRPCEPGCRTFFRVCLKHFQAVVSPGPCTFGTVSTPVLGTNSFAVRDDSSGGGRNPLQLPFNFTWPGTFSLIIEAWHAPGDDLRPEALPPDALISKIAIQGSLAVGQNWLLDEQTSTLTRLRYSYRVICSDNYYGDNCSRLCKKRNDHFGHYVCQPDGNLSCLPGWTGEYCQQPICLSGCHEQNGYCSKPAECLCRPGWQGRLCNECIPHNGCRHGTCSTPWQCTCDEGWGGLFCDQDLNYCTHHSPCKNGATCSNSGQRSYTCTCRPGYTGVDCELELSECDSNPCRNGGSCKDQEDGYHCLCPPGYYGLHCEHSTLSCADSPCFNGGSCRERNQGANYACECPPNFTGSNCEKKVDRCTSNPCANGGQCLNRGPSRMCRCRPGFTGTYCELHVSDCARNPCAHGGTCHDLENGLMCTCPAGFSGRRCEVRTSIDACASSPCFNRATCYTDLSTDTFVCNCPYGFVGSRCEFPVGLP
Assay: Biacore T100, antibody immobilised, soluble human DLL4 as analyte
pKd: −log10 of the molar value.
Observable: pKd

binder="21H3 IgG1 (antibody, V domains shown, Formatted as IgG1) VH: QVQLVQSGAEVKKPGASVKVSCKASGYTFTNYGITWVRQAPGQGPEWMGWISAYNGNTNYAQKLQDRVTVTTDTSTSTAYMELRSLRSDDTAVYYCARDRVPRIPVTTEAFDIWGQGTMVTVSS VL: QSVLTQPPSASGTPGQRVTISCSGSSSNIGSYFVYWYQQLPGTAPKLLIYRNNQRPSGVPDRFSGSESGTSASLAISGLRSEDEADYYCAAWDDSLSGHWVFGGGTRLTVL" reported_value=9.23
binder="4B4 IgG1 (antibody, V domains shown, Formatted as IgG1) VH: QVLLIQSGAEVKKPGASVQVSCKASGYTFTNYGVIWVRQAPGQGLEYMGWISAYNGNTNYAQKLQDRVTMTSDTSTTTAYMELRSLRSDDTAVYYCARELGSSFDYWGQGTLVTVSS VL: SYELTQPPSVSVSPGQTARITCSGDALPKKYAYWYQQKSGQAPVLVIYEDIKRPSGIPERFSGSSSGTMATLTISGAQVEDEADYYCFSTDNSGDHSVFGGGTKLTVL" reported_value=9.77
